FYI, the data here is from PubChem BioAssay (NCI).

# Test system: OVCAR-8 ovarian
# Procedure details: NCI-60 one-dose screen, 48 h
# Measurement setup: 10 µM unless noted
The panel holds about 83,000 compounds, 20% with a hit somewhere; the sample as a whole holds those more often. Activity calls are given as the source filed them. Rule for the calls: active = growth percent below 10; inactive = the rest.
Mark one answer only. Choices: TRUE for active, FALSE for inactive

Please review the following examples before continuing.
Task item: State the result this test recorded for CN(C)c1ncc(C#Cc2c(F)cccc2F)c2ccccc12 .
Reply: FALSE

Task item: Please let me know the test result on file for O=C(N/N=C1\SCC(=O)N1c1ccccc1)c1cc(-c2cc3ccccc3o2)nn1-c1ccccc1 .
Reply: FALSE

Task item: Call for entry CSc1ccc(C(=O)C[n+]2cccc(C)c2)cc1 :
Reply: FALSE

Task item: Test call for this molecule, please: CCCCCCCC(=O)SCC/C=C/[C@@H]1CC(=O)NCc2nc(cs2)C2=N[C@@](C)(CS2)C(=O)N[C@@H](C(C)C)C(=O)N1
Reply: TRUE

Task item: I would be grateful if you could indicate the recorded call for COc1ccc(OCC(O)CN2CCN(c3ccc(Cl)cc3)CC2)cc1 (stereo not given) .
Reply: FALSE

Alright, here's another molecule for you.
Task item: Just curious, what result did CN1CCN(Cn2nc(-c3cc(F)c(Cl)cc3Cl)n(/N=C/c3ccc(N(C)C)cc3)c2=S)CC1 get here?
Reply: FALSE

----------
growth values for the compounds below.
# System: TK-10 renal
# Procedure details: NCI-60 one-dose screen, 48 h (100 = growth as untreated, 0 = no growth, -100 = all killed)
# Measurement setup: 10 µM unless noted
Compounds without any hit were thinned out: in the full panel of roughly 83,000, 20% have a hit. The source made the active and inactive calls. Rule for the calls: active = growth percent below 10; inactive = the rest.

Examples from the recorded data:
Task item: Looking for the measured growth of COc1cc(-c2nc(N)n(CC(=O)Nc3ccc(/C(C)=N\O)cc3)n2)cc(OC)c1OC , can you help?
Reply: 90.9% (inactive)

Task item: Can you look up the measured growth of COc1cc(NC(C)CCCN2C(=O)c3ccccc3C2=O)c2nc(C)ccc2c1OC (stereo not drawn) for me?
Reply: 98.8% (inactive)

Task item: Item O=C(/C=C/c1ccccc1)Oc1ccc(/C=C/c2cc(OC(=O)/C=C/c3ccccc3)cc(OC(=O)/C=C/c3ccccc3)c2)cc1 has what recorded growth?
Reply: 87% (inactive)

Task item: I have this compound here, C=C(C)[C@@H]1C/C=C(\COC(=O)[C@H](OC(C)=O)C(NC(=O)c2ccccc2)c2ccccc2)CC[C@H]2O[C@]2(C)CC/C=C(\C)CC1 (stereo partly drawn) , and I need its recorded growth.
Reply: 85.8% [5 µM] (inactive)

Task item: Which growth reading was recorded for the compound COc1ccc(OC)c(NCC(=O)n2nc(/C=C\c3ccc(O)c(OC)c3)cc2/C=C\c2ccc(O)c(OC)c2)c1 ?
Reply: 16.4% (inactive)

---
Task item: Give its growth value. Item: COc1ccc(Cl)cc1NC(=O)c1cc2c([nH]1)-c1nc(NC(=O)C(C)C)sc1CC2
Reply: 85.8% (inactive)

Task item: Please report the recorded growth for COc1ccc(-n2c(-c3ccc(NC(=O)CCCl)cc3)nnc2-c2cc(OC)c(OC)c(OC)c2)cc1 .
Reply: 70.2% (inactive)

----------
# Tested on: BT-549 breast
# Procedure details: NCI-60 one-dose screen, 48 h (100 = growth as untreated, 0 = no growth, -100 = all killed)
# Measurement setup: 10 µM unless noted
The panel holds about 83,000 compounds, 20% with a hit somewhere; the sample as a whole holds those more often.
Binning rule for recorded growth: lower band: < 20%; central band: ≥ 20% and < 70%; upper band: ≥ 70%

Solved cases below.
Task item: Record CCn1c(C)nc([N+](=O)[O-])c1Sc1nc(N)nc2nc[nH]c12 — which class?
Reply: central band

Task item: Which growth category applies to CCCCC(=O)Nc1nc2ccc(SCCC)cc2s1 here?
Reply: central band

Task item: Returns: class label. Input: COc1ccc(-c2nn(-c3ccc(NC(=O)Nc4cc(C(F)(F)F)cc(C(F)(F)F)c4)cc3)cc2-c2ccncc2)cc1Cl
Reply: lower band

Task item: Could you tell me which band NCC(=O)NS(=O)(=O)OC[C@H]1O[C@@H](n2cnc3c(N)ncnc32)[C@H](O)[C@@H]1O belongs to?
Reply: central band

Continuing:
Task item: Place this compound in its band: O=c1c2ccccc2sc2c(NCCN3CCOCC3)nc3ccccc3c12
Reply: upper band

Task item: For CC(=O)c1cc2c(c(O)c1C)C(=O)C(=O)c1c(O)cccc1-2 , which growth bin applies?
Reply: lower band

Task item: Would you mind sorting CCN(CC)CCNc1ccc([N+](=O)[O-])c2sc3cc(Cl)ccc3c(=O)c12 into the appropriate category?
Reply: upper band

----------
# Tested on: SK-MEL-5 melanoma
# Procedure details: NCI-60 one-dose screen, 48 h
# Measurement setup: 10 µM unless noted
About 83,000 compounds went through this panel and 20% of them were active in at least one assay; those are over-represented in the sample as a whole. Active and inactive are the calls of the source. The calls were made as follows: active = growth percent below 10; inactive = the rest.
Hi there, use one of these labels in your reply, thanks! YES (active), NO (inactive)

Previously resolved entries follow.
Task item: // outcome(item) with item = CC1(C)N=C(N)N=C(N)N1c1ccc(OCC(=O)Nc2ccccc2)c(Cl)c1
Reply: NO

Task item: Tell me the recorded outcome of this test for CC(/C=C/C=C(\C)[C@H](O)[C@H](C)C(=O)O[C@H]1C[C@H](C)C=C2C=C[C@@]3(C)O[C@@H](O)CC(=O)[C@]3(C)[C@H]21)=C\C=C\C(=O)O .
Reply: YES

Task item: GET /call?item= COc1ccc(Cl)cc1NC(=O)c1cc2c([nH]1)-c1nc(NC(=O)C(C)C)sc1CC2 returns the recorded outcome of this test.
Reply: NO

Task item: Please state the recorded outcome for this compound: Cc1[nH]n(C(=O)c2ccncc2)c(=O)c1N=Nc1ccc(S(=O)(=O)Nc2ccncn2)cc1
Reply: NO

Next:
Task item: Returns: the outcome recorded for N#CC1=C(N)Oc2c(ccc3ccccc23)C1c1cc(=O)oc2ccc(Cl)cc12 (configuration not stated) in this assay.
Reply: NO

Task item: Which result was noted for this compound in the test: O=C(O)c1cccc(S(=O)(=O)c2ccccc2)c1
Reply: NO

Task item: Dear all, I need the recorded test outcome for CCC1S/C(=N\N=C(/C)c2ccco2)N(c2ccccc2)C1=O (configuration not stated) , thank you.
Reply: NO

----------
# Test system: ACHN renal
# Procedure details: NCI-60 one-dose screen, 48 h (100 = growth as untreated, 0 = no growth, -100 = all killed)
# Measurement setup: 10 µM unless noted
This is part of a sample that, as a whole, favours compounds with a hit. Of some 83,000 tested, about 20% had one in any assay.
Assign yes (1) whenever growth does not fall below 90%; assign no (0) whenever it does.

Examples from the recorded data:
Task item: Quick check, growth >= 90%? CCC(C)Nc1ccc(N)cc1 (stereo unspecified)
Reply: no (0)

Task item: hey, is growth for this one >= 90%? CN(C)c1ccc(/C=N/N=C(N)N)cc1
Reply: yes (1)

Task item: Could you please find out whether O=[N+]([O-])c1ccccc1NC1c2ccccc2Oc2ccccc21 has growth that meets 90% or exceeds it?
Reply: no (0)

Task item: Evaluate O=C(COc1ccc(Cl)cc1Cl)N1N=C(c2ccc(Cl)cc2Cl)CC1(O)c1cc(F)c(Cl)cc1Cl (stereo unspecified) : growth at minimum 90%?
Reply: yes (1)

Task item: Is growth at least 90%? Consider CCOC(=O)C1CN(Cc2ccccc2)C(=O)C1=O (stereo unspecified)
Reply: yes (1)

New cases:
Task item: Answer whether growth of CN(C)c1ccc2cc(-c3nc4ccccc4s3)c(N)nc2c1 is greater than or equal to 90%.
Reply: yes (1)

Task item: Please tell me: is the compound CS(=O)(=O)Nc1cccc(-c2ccc3ncnc(Nc4cncc(Cl)c4)c3c2)c1 at or over 90% in terms of growth?
Reply: no (0)

Task item: Is growth at least 90%? Consider COc1ccc(OC)c(NCC(=O)n2nc(/C=C\c3ccc(O)c(OC)c3)cc2/C=C\c2ccc(O)c(OC)c2)c1
Reply: no (0)

----------
# System: SK-MEL-5 melanoma
# Procedure details: NCI-60 one-dose screen, 48 h (100 = growth as untreated, 0 = no growth, -100 = all killed)
# Measurement setup: 10 µM unless noted
# Experimental: Growth inhibition of the SK-MEL-5 human tumor cell line is measured as a screen for anti-cancer activity. Cells are grown in 96 well plates and exposed to the test compound for 48 hours. Compounds are tested at a single concentration, which is 10^-5 M for most compounds. The reported endpoint is percent growth (GI% or GIPRCNT), where numbers from 0 - 100% represent growth inhibition, and numbers from -100% - 0 represent cell death. For example, a value of 40 represents 60% growth inhibition. […]
The panel holds about 83,000 compounds, 20% with a hit somewhere; the sample as a whole holds those more often.
Quantity measured: growth (%)
Report the figure in % without appending any unit label.

Previously resolved entries follow.
Task item: Quick one: growth for CCN(CC)CCNCC(O)Cc1ccc(OC)cc1 (configuration not stated) ?
Reply: 99.9

Task item: Could you tell me which growth is on file for CCCCCCCCCCCCCCCCNc1ccccc1 ?
Reply: 104

Task item: Which growth is reported for this compound? O=C(C[n+]1ccccc1Cl)c1ccc2c(c1)CCCC2
Reply: 98.4

Task item: So what's the measured growth for this one? O=C(Nc1cccc([N+](=O)[O-])c1)Nc1cccc([N+](=O)[O-])c1
Reply: 55

Task item: Requested field: growth. Item: Cc1cc(C)c(O)c(C(=O)CC(Br)C(=O)O)c1 (configuration not stated)
Reply: 101

Task item: Query: growth; subject: O=C(Nc1ccc(F)cc1)Nc1ccc(Cl)c([N+](=O)[O-])c1
Reply: 22

Task item: growth lookup needed for CC1(C)CC(=O)C2=C(C1)OC1=C(C(=O)CC(C)(C)C1)C2c1ccc(OCc2cn(-c3ccc(F)cc3F)nn2)cc1 , thanks.
Reply: 58.4

Task item: growth for CC1=C[S+](c2ccccc2)c2cccc3cc4ccccc4c1c23 (configuration not stated) ?
Reply: -86.7

New cases:
Task item: Please give the measured growth for this compound: COc1cc(C(=O)NNC(=O)c2ccccc2O)cc(OC)c1OC
Reply: 86.9
